Target: Voltage-dependent T-type calcium channel subunit alpha-1H (Homo sapiens) (UniProt O95180)
Sequence (O95180 whole entry, looked up): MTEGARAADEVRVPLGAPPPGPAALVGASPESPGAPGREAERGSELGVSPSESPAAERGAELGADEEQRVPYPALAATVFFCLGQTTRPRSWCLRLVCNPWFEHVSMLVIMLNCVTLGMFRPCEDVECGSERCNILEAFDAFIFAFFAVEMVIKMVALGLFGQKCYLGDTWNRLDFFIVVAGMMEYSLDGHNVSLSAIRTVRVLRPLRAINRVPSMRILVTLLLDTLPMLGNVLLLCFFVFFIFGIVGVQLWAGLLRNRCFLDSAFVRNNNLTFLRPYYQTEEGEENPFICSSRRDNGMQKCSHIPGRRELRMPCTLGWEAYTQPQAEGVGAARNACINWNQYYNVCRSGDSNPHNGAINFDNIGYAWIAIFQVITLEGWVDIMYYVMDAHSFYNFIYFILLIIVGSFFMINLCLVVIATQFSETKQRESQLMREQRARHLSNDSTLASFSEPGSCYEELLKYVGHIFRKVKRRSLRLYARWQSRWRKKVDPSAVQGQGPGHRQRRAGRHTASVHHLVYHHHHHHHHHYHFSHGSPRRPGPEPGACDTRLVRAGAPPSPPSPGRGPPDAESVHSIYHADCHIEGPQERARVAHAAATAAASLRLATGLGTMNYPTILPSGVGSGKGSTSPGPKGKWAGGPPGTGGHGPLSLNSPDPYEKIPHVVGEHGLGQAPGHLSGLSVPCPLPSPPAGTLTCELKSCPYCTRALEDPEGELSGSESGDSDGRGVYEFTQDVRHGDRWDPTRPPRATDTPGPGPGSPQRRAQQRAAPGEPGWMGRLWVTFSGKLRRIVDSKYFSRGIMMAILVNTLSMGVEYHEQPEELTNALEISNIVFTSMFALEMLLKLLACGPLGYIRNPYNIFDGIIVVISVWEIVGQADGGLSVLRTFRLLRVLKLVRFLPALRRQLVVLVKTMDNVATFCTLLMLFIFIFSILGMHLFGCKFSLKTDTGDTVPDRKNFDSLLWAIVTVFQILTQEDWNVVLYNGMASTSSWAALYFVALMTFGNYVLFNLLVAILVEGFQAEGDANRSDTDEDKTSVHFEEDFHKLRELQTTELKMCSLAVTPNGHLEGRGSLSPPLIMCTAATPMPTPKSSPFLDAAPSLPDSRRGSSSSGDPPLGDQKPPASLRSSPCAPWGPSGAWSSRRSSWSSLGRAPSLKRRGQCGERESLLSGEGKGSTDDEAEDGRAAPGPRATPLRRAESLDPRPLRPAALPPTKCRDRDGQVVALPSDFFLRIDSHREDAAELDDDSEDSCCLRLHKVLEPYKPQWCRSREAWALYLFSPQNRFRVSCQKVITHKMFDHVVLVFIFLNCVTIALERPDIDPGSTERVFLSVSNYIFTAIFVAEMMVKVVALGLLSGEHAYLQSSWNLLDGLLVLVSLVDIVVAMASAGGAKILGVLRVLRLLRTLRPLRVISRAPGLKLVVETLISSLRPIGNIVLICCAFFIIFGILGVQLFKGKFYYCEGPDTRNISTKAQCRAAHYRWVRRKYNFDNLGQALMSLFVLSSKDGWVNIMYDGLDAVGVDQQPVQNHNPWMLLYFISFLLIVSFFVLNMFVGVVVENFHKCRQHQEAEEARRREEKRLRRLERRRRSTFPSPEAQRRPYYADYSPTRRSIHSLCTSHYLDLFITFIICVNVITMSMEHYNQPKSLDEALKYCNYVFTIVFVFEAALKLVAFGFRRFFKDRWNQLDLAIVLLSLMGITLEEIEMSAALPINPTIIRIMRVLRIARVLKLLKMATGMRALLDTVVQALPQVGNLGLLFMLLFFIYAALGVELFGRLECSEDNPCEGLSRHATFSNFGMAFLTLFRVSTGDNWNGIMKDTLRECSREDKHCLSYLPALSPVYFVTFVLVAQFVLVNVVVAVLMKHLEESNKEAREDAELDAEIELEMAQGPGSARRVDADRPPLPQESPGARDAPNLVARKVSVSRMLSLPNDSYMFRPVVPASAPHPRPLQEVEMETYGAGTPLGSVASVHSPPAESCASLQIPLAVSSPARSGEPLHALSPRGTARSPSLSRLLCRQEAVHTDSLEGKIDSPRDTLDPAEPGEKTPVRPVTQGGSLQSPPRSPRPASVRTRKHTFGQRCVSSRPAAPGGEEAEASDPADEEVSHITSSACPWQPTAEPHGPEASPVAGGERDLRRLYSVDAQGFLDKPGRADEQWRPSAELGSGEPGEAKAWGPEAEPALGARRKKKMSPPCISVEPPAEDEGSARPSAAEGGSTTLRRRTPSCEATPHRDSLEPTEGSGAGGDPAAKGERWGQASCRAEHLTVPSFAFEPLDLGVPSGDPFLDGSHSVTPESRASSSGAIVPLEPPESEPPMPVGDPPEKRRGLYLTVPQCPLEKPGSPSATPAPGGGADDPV
Test: Cav3.2 calcium influx blockers – cell-based, Fluo-4 calcium fluorescence, FDSS, MLSMR library, primary screen (AID 449739)
Details: Cav3.2-expressing cells, at 10 µM, stronger effect = lower value
Hit rate of the full screen: of about 100,000 compounds, about 4,200 (4.2%) were called active. The sample holds actives, similar compounds and a random draw of the others, so the mix is not that of the screen.
Quantity: B-score

INSERT INTO assay_data (compound, recorded_measurement) VALUES
  ('COc1ccc(N2CCN(C(=O)CCc3nc(-c4ccc(C)cc4)no3)CC2)cc1', -3.49),
  ('CCCCOC(=O)c1ccc(N2C(=O)CC(N3CCN(C/C=C/c4ccccc4)CC3)C2=O)cc1 (stereo unspecified)', -6.05),
  ('FC(F)(F)c1cc(C(F)(F)F)c2ccc(N3CCN(c4ccccc4)CC3)nc2n1', -0.29),
  ('CCOc1ccc(C(=O)Nc2cc(OC)ccc2OC)cc1', -0.483),
  ('O=C1CCC(=O)N(O)CCCCCNC(=O)CCC(=O)N(O)CCCCCNC(=O)CCC(=O)N(O)CCCCCN1', 0.127),
  ('C=C1CCN([C@@H](Cc2ccccc2)C(=O)N2CCOCC2)S(=O)(=O)c2ccccc21', 0.119),
  ('Cc1ccc(-c2noc(CCC(N)=O)n2)cc1', 0.127),
  ('COc1ccc(C(=O)Nc2ncc3c(n2)-c2ccccc2CC3)cc1', 0.00103),
  ('COc1ccccc1NC(=O)CSc1nnc(-c2ccoc2C)n1CCc1ccccc1', -2.79),
  ('CN(C)c1ccc(NC(=S)N(CCc2ccccc2)C2CC(=O)N(c3c(Cl)cccc3Cl)C2=O)cc1 (stereo unspecified)', -7.09),
  ('COc1ccc(CN2[C@@H](CC(=O)O)c3cc(F)ccc3S2(=O)=O)cc1', -2.11),
  ('C=C1C2C[C@H](O)C(C)(C)[C@@]2(O)[C@H](O)C[C@]23C[C@@](C)(O)[C@H](CC[C@H]12)[C@H]3O (stereo partly specified)', 0.00132),
  ('COC(=O)CCCC1=CC2=CC(=O)C(C)(OC(=O)c3cccs3)C(=O)C2=CN1c1cccc(C#N)c1 (stereo unspecified)', 0.181),
  ('COc1ccc(OC)c(NC(=O)CCN2CCC(C)CC2)c1', -3.95),
  ('CCOc1c2ccc(C(=O)NCc3ccc(OC(F)(F)F)cc3)cc2nn1C', -1.9),
  ('COC(=O)c1cccc(NC(=O)CSc2nc(C)cc(=O)[nH]2)c1', 0.842),
  ('c1cncc(-c2nnc3n2C2(CCCCC2)Cc2ccccc2-3)c1', 0.419),
  ('O=C(Nc1ncc2c(n1)-c1ccccc1OC2)c1ccc(Cl)cc1', -4.5),
  ('COc1ccc(N2CCN(C(=O)c3ccc4c(Cl)c5c(nc4c3)CCCC5)CC2)cc1', -0.0196),
  ('CC(C)(C)Oc1ccccc1Nc1nc(NCCO)nc(N2CCCC2)n1', 0.107),
  ('CCCNC(=S)NC1CC2CCCC(C1)N2CC(C)C (stereo unspecified)', 1.82),
  ('CCOC(=O)c1ccc(N2C(=O)CC(N(C)Cc3ccccc3)C2=O)cc1 (stereo unspecified)', 0.0731),
  ('O=C(Cc1ccc(-n2c(=O)c3sccc3n(Cc3ccc(F)cc3)c2=O)cc1)NCc1ccco1', -0.875),
  ('O=C(NCC1CC1)c1onc(CSc2ccccc2)c1C(=O)NCC1CC1', -1.14),
  ('Cc1sc(NC(=S)NC(=O)c2cccs2)nc1-c1ccc(CC(C)C)cc1', -0.0675),
  ('COc1ccc(CCNC(=O)C2CC3Cn4c(nc5cc(C)c(C)cc54)C3N2C)cc1 (stereo unspecified)', 0.841),
  ('CCOC(=O)c1ccc(N2C(=O)CC(N3CC(C)OC(C)C3)C2=O)cc1 (stereo unspecified)', 0.246),
  ('CSc1cccc(NC(=O)CSc2ccccc2)c1', -6.09),
  ('Cc1nc(C(=O)Nc2ccc(Cl)cc2)sc1C1(C)CC(c2ccccc2)=NO1 (stereo unspecified)', 0.201),
  ('O=C(NCc1ccco1)c1ccc(Cn2c(=O)c3sccc3n(Cc3ccc(F)cc3)c2=O)cc1', -3.42),
  ('Cc1ccc(NC(=O)c2nc[nH]c2C(=O)N[C@@H](CCCCNC(=O)OC(C)(C)C)C(=O)OC(C)(C)C)cc1', -0.574),
  ('Cc1ccc(Cl)cc1NC(=O)COC(=O)C1CCCCC1', -0.13),
  ('CC(C)NC(=O)CSc1ccccc1C(=O)NCc1ccc2c(c1)OCO2', 0.374),
  ('Cc1cc(C)cc(NC(=O)c2cccc(NC(=O)C3C4CC5OC(=O)C3C5C4)c2)c1 (stereo unspecified)', -0.673),
  ('C#CCOCCOCCOCCNc1nc(N2CCN(C(=O)C([C@@H](C)CC)n3cc(C(N)COC(=O)C(F)(F)F)nn3)CC2)nc(N2CCN(C(=O)[C@H](Cc3ccc(O)cc3)n3cc(C(N)[C@H](C)CC)nn3)CC2)n1 (stereo partly specified)', 0.00651),
  ('C[C@@H]1CC[C@]2(O[C@@H](CCO)C[C@H](O)[C@H]2O)O1', 0.111),
  ('CC(C)NC(=O)C(=O)NCCCOC(C)C', 0.568),
  ('Cc1ccc(-n2c(SCC(=O)Nc3ccc4c(c3)OCO4)nnc2-c2ccoc2C)cc1', -0.45),
  ('Cc1ccc(SCC2=NNC(=O)C2)cc1', -0.242),
  ('Cc1ccccc1C(=O)N1CCC(C(=O)Nc2ccc(S(=O)(=O)N(C)C(C)C)cc2)CC1', 0.159),
  ('O=C(NCc1ccco1)c1ccc(CS(=O)(=O)Cc2ccc(F)cc2)o1', 1.27);
